Property: EC50; scope: individual compounds
# SUBJECT OF TEST: MC4R + GPR139 (Homo sapiens, UniProt Q6DWJ6)
# ASSAY INFO: Calcium mobilization, HEK-293 transiently expressing MC4R + GPR139
Numbers only here, please. The scale is nM.

Q: Notebook entry, MC4R + GPR139 (Homo sapiens, UniProt Q6DWJ6) assay: EC50 of COc1cc(OC)cc(C(=O)NNC(=O)Nc2cccc3ccccc23)c1 [TC-O9311] = ?
Result: 66.1

Q: Notebook entry, MC4R + GPR139 (Homo sapiens, UniProt Q6DWJ6) assay: EC50 of N[C@@H](Cc1c[nH]c2ccccc12)C(=O)O [L-Trp, L-tryptophan] = ?
Result: 93300

Q: Notebook entry, MC4R + GPR139 (Homo sapiens, UniProt Q6DWJ6) assay: EC50 of C[C@H](NC(=O)CNC(=O)c1cccc(Cl)c1)c1ccccc1 [JNJ-63533054] = ?
Result: 35.5

----------
# SUBJECT OF TEST: MC4R (Homo sapiens)
# Construct: expressed in transfected cells; host or cells: HEK-293, pCIneo, transient (FuGene HD)
# Sequence (P32245 whole entry): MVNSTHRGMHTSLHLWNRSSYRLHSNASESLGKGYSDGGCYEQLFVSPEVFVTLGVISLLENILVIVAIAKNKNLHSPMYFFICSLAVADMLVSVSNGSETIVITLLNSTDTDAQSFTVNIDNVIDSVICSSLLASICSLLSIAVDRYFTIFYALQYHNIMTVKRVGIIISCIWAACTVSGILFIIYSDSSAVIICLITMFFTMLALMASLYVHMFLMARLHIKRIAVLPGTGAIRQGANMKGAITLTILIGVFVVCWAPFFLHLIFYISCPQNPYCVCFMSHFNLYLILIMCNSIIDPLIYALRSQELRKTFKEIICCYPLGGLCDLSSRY
# ASSAY INFO: Calcium mobilization, HEK-293 transiently expressing MC4R
# Format: cell-based
pEC50: −log10 of the molar value.
ENDPOINT NAME: pEC50

Q: Given the entry "COc1cc(OC)cc(C(=O)NNC(=O)Nc2cccc3ccccc23)c1" , report its measured pEC50.
Result: < 5.00

----------
Property: pEC50; scope: individual compounds
# SUBJECT OF TEST: MC5R + GPR139 (Homo sapiens)
# ASSAY INFO: Calcium mobilization, HEK-293 transiently expressing MC5R + GPR139
The quantity pEC50 is defined as the negative base-10 logarithm of the molar concentration.

Q: Given the entry "N[C@@H](Cc1c[nH]c2ccccc12)C(=O)O" , report its measured pEC50.
Result: 4.02

Q: Given the entry "COc1cc(OC)cc(C(=O)NNC(=O)Nc2cccc3ccccc23)c1" , report its measured pEC50.
Result: 7.43

Turning now to a further compound:
Q: Given the entry "C[C@H](NC(=O)CNC(=O)c1cccc(Cl)c1)c1ccccc1" , report its measured pEC50.
Result: 7.68

----------
# SUBJECT OF TEST: GPR139 (Homo sapiens, UniProt Q6DWJ6)
# Sequence (Q6DWJ6 1-353): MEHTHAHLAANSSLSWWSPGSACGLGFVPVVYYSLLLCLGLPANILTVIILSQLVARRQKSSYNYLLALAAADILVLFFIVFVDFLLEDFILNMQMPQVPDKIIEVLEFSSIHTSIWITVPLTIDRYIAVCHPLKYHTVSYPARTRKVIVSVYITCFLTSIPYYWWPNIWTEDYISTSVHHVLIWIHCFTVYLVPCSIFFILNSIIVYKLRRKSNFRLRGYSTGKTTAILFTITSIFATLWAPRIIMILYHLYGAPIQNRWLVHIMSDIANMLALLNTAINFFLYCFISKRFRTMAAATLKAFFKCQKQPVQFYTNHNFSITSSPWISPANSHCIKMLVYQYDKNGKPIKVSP
# ASSAY INFO: Calcium mobilization, SK-N-MC/CRE cells stably expressing human GPR139
# Type: cell-based
# Parameters: expressed in transfected cells; host or cells: CHO-TREx GPR139 clone#18
ENDPOINT NAME: EC50 (nM)
Numbers only here, please. The scale is nM.

Q: Given the entry "COc1cc(OC)cc(C(=O)NNC(=O)Nc2cccc3ccccc23)c1" , report its measured EC50.
Result: 49

----------
Property: EC50; scope: individual compounds
# SUBJECT OF TEST: MC3R + GPR139 (Homo sapiens, UniProt Q6DWJ6)
# ASSAY INFO: Calcium mobilization, HEK-293 transiently expressing MC3R + GPR139
# Assay type: cell-based
Numbers only here, please. The scale is nM.

Q: Given the entry "N[C@@H](Cc1c[nH]c2ccccc12)C(=O)O" , report its measured EC50.
Result: 87100

Further cases:
Q: Given the entry "C[C@H](NC(=O)CNC(=O)c1cccc(Cl)c1)c1ccccc1" , report its measured EC50.
Result: 37.2

Q: Given the entry "COc1cc(OC)cc(C(=O)NNC(=O)Nc2cccc3ccccc23)c1" , report its measured EC50.
Result: 69.2

----------
# SUBJECT OF TEST: GPR139 (Homo sapiens, UniProt Q6DWJ6)
# Sequence (Q6DWJ6 1-353): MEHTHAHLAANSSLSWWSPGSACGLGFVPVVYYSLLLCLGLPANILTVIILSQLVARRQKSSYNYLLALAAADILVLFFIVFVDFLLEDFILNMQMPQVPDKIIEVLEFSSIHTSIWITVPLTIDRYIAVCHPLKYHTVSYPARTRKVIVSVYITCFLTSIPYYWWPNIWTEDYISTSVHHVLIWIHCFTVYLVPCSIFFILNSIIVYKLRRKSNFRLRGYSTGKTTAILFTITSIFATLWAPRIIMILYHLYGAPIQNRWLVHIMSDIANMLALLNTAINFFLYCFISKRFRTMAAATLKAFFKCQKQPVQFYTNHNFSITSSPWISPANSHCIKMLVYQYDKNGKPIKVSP
# ASSAY INFO: Calcium mobilization, HEK-293 cells stably expressing human GPR139
# Format: cell-based
# Design: expressed in transfected cells
ENDPOINT NAME: EC50
Answer format: value, then unit.

Q: Notebook entry, GPR139 (Homo sapiens, UniProt Q6DWJ6) assay: EC50 of COc1cc(OC)cc(C(=O)NNC(=O)Nc2cccc3ccccc23)c1 [TC-O9311] = ?
Result: 77.6 nM

----------
# SUBJECT OF TEST: GPR139 (Homo sapiens)
# Sequence (Q6DWJ6 1-353): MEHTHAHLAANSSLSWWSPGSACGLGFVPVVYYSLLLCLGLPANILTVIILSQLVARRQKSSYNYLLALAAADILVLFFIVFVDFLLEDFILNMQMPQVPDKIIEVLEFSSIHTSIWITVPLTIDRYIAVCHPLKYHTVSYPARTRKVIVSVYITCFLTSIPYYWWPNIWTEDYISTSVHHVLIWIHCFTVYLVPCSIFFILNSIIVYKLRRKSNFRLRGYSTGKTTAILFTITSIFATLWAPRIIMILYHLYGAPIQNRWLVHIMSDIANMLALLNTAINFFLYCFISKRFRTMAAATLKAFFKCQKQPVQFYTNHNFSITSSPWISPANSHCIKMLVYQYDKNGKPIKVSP
# ASSAY INFO: Calcium mobilization, CHO-TREx cells stably expressing human GPR139
# Assay type: cell-based
# Parameters: expressed in transfected cells; host or cells: CHO-TREx GPR139 clone#18
ENDPOINT NAME: EC50 (nM)
Numbers only here, please. The scale is nM.

Q: Given the entry "COc1cc(OC)cc(C(=O)NNC(=O)Nc2cccc3ccccc23)c1" , report its measured EC50.
Result: 39.8

----------
# SUBJECT OF TEST: MC3R + Gα16 (Homo sapiens)
# Construct: expressed in transfected cells; host or cells: HEK-293, pCIneo, transient (10 μg MCR:5 μg Gα16)
# Sequence (P41968 whole entry): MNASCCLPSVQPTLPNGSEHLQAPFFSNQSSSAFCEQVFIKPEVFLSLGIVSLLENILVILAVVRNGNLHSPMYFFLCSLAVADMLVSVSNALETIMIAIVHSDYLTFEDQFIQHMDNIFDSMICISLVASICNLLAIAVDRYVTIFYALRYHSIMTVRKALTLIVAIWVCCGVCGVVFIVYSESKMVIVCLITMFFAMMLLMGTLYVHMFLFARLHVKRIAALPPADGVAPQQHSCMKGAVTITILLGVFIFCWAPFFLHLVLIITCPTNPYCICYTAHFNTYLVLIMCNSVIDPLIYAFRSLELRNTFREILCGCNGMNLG
# ASSAY INFO: Calcium mobilization, HEK-293 transiently expressing MC3R + Gα16
# Format: cell-based
pEC50: −log10 of the molar value.
ENDPOINT NAME: pEC50

Q: Notebook entry, MC3R + Gα16 (Homo sapiens) assay: pEC50 of COc1cc(OC)cc(C(=O)NNC(=O)Nc2cccc3ccccc23)c1 [TC-O9311] = ?
Result: < 5.00

----------
# SUBJECT OF TEST: GPR139 + MC5R (Homo sapiens)
# ASSAY INFO: Calcium mobilization, stable GPR139-HEK-293 cell line transiently expressing MC5R
Property: pEC50; scope: individual compounds
The quantity pEC50 is defined as the negative base-10 logarithm of the molar concentration.

Q: Given the entry "COc1cc(OC)cc(C(=O)NNC(=O)Nc2cccc3ccccc23)c1" , report its measured pEC50.
Result: 7.38

Turning now to a further compound:
Q: Given the entry "N[C@@H](Cc1c[nH]c2ccccc12)C(=O)O" , report its measured pEC50.
Result: 3.79

----------
# SUBJECT OF TEST: GPR139 + MC3R (Homo sapiens, UniProt Q6DWJ6)
# Construct: expressed in transfected cells; host or cells: HEK-293 GPR139 clone#33, MC3R transient (FuGENE HD)
# ASSAY INFO: Calcium mobilization, stable GPR139-HEK-293 cell line transiently expressing MC3R
# Type: cell-based
ENDPOINT NAME: pEC50
The quantity pEC50 is defined as the negative base-10 logarithm of the molar concentration.

Q: Given the entry "COc1cc(OC)cc(C(=O)NNC(=O)Nc2cccc3ccccc23)c1" , report its measured pEC50.
Result: 7.30

----------
# SUBJECT OF TEST: MC3R (Homo sapiens, UniProt P41968)
# Construct: expressed in transfected cells; host or cells: HEK-293, pCIneo, transient (FuGene HD)
# Sequence (P41968 whole entry): as the sequence (P41968 whole entry) above
# ASSAY INFO: Calcium mobilization, HEK-293 transiently expressing MC3R
# Format: cell-based
ENDPOINT NAME: EC50

Q: Given the entry "COc1cc(OC)cc(C(=O)NNC(=O)Nc2cccc3ccccc23)c1" , report its measured EC50.
Result: > 10 µM
